I'd appreciate it if you could supply fold induction at 5 µM values for the items below.
# Test system: HMOX1
# TEST_METHOD_NOTES: HMOX1 Protein Assay (immunostaining of HO-1 in NHLF cells, GE InCell 1000)
# Assay type: cell-based
# MEASUREMENT_SETUP: Homo sapiens, fold change above DMSO treated cells, 5 μM compound, 16 h
Where a name gives a salt, the structure may show the parent alone.
Give only the figure.

Fill in reported fold induction at 5 µM for this entry: `COCCn1c(Nc2nc3ccc(Cl)cc3s2)nc2cc(C(=O)NCC(=O)N3CC[C@@H](O)C3)ccc21`
26.1

Fill in reported fold induction at 5 µM for this entry: `Cn1c(Nc2nc3ccc(OC(F)(F)F)cc3s2)nc2cc(C(=O)NCC(=O)N3CCC[C@H]3CO)ccc21`
31

Fill in reported fold induction at 5 µM for this entry: `COCCNC(=O)c1cc2nc(Nc3nc4ccc(OC(F)(F)F)cc4s3)n(C)c2cc1F`
18.2

Fill in reported fold induction at 5 µM for this entry: `Cn1c(Nc2nc3ccc(OC(F)(F)F)cc3s2)nc2cc(C(=O)O)ccc21`
12.5

Fill in reported fold induction at 5 µM for this entry: `CN(C)CC(=O)N1CCC(NC(=O)c2ccc3c(c2)nc(Nc2nc4ccc(Cl)cc4s2)n3C)CC1`
22.9

Fill in reported fold induction at 5 µM for this entry: `Cn1c(Nc2nc3cc(F)c(F)cc3s2)nc2cc(C(=O)NCCO)ccc21`
13.8

Fill in reported fold induction at 5 µM for this entry: Cn1c(Nc2nc3ccc(OC(F)(F)F)cc3s2)nc2cc(C(=O)NC3CCNC3)ccc21 (centres unmarked) [Example 289, hydrochloride]
44.6

Fill in reported fold induction at 5 µM for this entry: `COCCn1c(Nc2nc3ccc(OC(F)(F)F)cc3s2)nc2cc(C(=O)O)ccc21`
22.4

====

# System: HMOX1
# TEST_METHOD_NOTES: HMOX1 Protein Assay (immunostaining of HO-1 in NHLF cells, GE InCell 1000)
# Type: cell-based
# MEASUREMENT_SETUP: Homo sapiens, fold change above DMSO treated cells, 5 μM compound, 16 h
Counter-ions that a name gives are not always drawn.
PARAMETER_MEASURED: fold induction at 5 µM

Look up and report measured fold induction at 5 µM (HMOX1) for the following molecule: `CN(C)CC1CCN(C(=O)CNC(=O)c2ccc3c(c2)nc(Nc2nc4ccc(OC(F)(F)F)cc4s2)n3C)CC1`
68.5

Look up and report measured fold induction at 5 µM (HMOX1) for the following molecule: `Cn1c(Nc2nc3ccc(OC(F)(F)F)cc3s2)nc2cc(C(=O)NCC(=O)N3CCC(Oc4ncccn4)CC3)ccc21`
71.7

Look up and report measured fold induction at 5 µM (HMOX1) for the following molecule: Cn1c(Nc2nc3ccc(OC(F)(F)F)cc3s2)nc2cc(C(=O)NCC(=O)N3CCCCC3CO)ccc21 (stereo not drawn)
84.2

Look up and report measured fold induction at 5 µM (HMOX1) for the following molecule: `CCn1c(Nc2nc3ccc(C(F)(F)F)cc3s2)nc2cc(C(=O)NCC(=O)N(C)C)ccc21`
18.4

Look up and report measured fold induction at 5 µM (HMOX1) for the following molecule: `CN(C)CC(=O)N1CCC[C@H](NC(=O)c2ccc3c(c2)nc(Nc2nc4ccc(Cl)cc4s2)n3C)C1`
68.8

Look up and report measured fold induction at 5 µM (HMOX1) for the following molecule: `CCN(CC)c1cc2c(cc1C(=O)O)nc(Nc1nc3ccc(OC(F)(F)F)cc3s1)n2C`
21.4

Look up and report measured fold induction at 5 µM (HMOX1) for the following molecule: Cn1c(Nc2nc3ccc(OC(F)(F)F)cc3s2)nc2cc(C(=O)NCC(=O)N3CCCC(O)C3)ccc21 (stereo not drawn)
49.4

Look up and report measured fold induction at 5 µM (HMOX1) for the following molecule: `COCCn1c(Nc2nc3ccc(Cl)cc3s2)nc2cc(C(=O)NC3CCN(CCO)CC3)ccc21`
27.8

Look up and report measured fold induction at 5 µM (HMOX1) for the following molecule: `Cn1c(Nc2nc3ccc(OC(F)(F)F)cc3s2)nc2cc(C(=O)NCC(C)(C)O)ccc21`
12.5

Look up and report measured fold induction at 5 µM (HMOX1) for the following molecule: `COC(=O)c1ccc2c(c1)nc(Nc1nc3ccc(Cl)cc3s1)n2C`
10.1

Look up and report measured fold induction at 5 µM (HMOX1) for the following molecule: Cn1c(Nc2nc3ccc(Cl)cc3s2)nc2cc(C(=O)NC3CCN(CCNS(C)(=O)=O)C3)ccc21 (stereo not drawn)
26.2

Look up and report measured fold induction at 5 µM (HMOX1) for the following molecule: `Cn1c(Nc2nc3ccc(OC(F)(F)F)cc3s2)nc2cc(C(=O)O)cnc21`
11.9

Look up and report measured fold induction at 5 µM (HMOX1) for the following molecule: Cn1c(Nc2nc3ccc(Cl)cc3s2)nc2cc(C(=O)N[C@H]3CCNC3)ccc21 [Example 291, hydrochloride]
17

Look up and report measured fold induction at 5 µM (HMOX1) for the following molecule: `COC(=O)c1ccc2c(c1)nc(Nc1nc3ccc(OC(F)(F)F)cc3s1)n2C`
6.51

Look up and report measured fold induction at 5 µM (HMOX1) for the following molecule: `Cn1c(Nc2nc3ccc(OC(F)(F)F)cc3s2)nc2cc(C(=O)NC[C@H]3CC[C@H](O)CC3)ccc21`
33

Look up and report measured fold induction at 5 µM (HMOX1) for the following molecule: `C[C@@H](O)CNC(=O)CNC(=O)c1ccc2c(c1)nc(Nc1nc3ccc(Cl)cc3s1)n2C`
20.6

Look up and report measured fold induction at 5 µM (HMOX1) for the following molecule: `Cn1c(Nc2nc3ccc(Cl)cc3s2)nc2cc(C(=O)NCCOCCO)ccc21`
37.7

Look up and report measured fold induction at 5 µM (HMOX1) for the following molecule: `Cn1c(Nc2nc3ccc(OC(F)(F)F)cc3s2)nc2cc(C(=O)NCC3CCOCC3)ccc21`
21.4

Look up and report measured fold induction at 5 µM (HMOX1) for the following molecule: `CN1CCN(C(=O)CCCNC(=O)c2ccc3c(c2)nc(Nc2nc4ccc(Cl)cc4s2)n3C)CC1`
20.3

Look up and report measured fold induction at 5 µM (HMOX1) for the following molecule: `Cn1c(Nc2nc3ccc(OC(F)(F)F)cc3s2)nc2cc(C(=O)NCC(=O)N3CCN(C(=O)OC(C)(C)C)CC3)ccc21`
15.2

Look up and report measured fold induction at 5 µM (HMOX1) for the following molecule: `CNC(=O)c1ccc2c(c1)nc(Nc1nc3ccc(OC(F)(F)F)cc3s1)n2CC(C)C`
20.5

Look up and report measured fold induction at 5 µM (HMOX1) for the following molecule: `COC(=O)c1ccc2c(c1)nc(Nc1nc3cc(OC(F)(F)F)ccc3s1)n2C`
8.5

Look up and report measured fold induction at 5 µM (HMOX1) for the following molecule: Cn1c(Nc2nc3ccc(OC(F)(F)F)cc3s2)nc2cc(C(=O)NCC(=O)N3CCCC(CO)C3)ccc21 (stereo not drawn)
28.2

Look up and report measured fold induction at 5 µM (HMOX1) for the following molecule: `CCOCCNC(=O)c1ccc2c(c1)nc(Nc1nc3cc(F)c(F)cc3s1)n2C`
12.1

Look up and report measured fold induction at 5 µM (HMOX1) for the following molecule: `CN(C)CC(=O)N1CC[C@@H](NC(=O)c2ccc3c(c2)nc(Nc2nc4ccc(Cl)cc4s2)n3C)C1`
24.3

Look up and report measured fold induction at 5 µM (HMOX1) for the following molecule: `Cn1c(Nc2nc3ccc(Cl)cc3s2)nc2cc(C(=O)NCC(=O)NCCS(C)(=O)=O)ccc21`
16.4

Look up and report measured fold induction at 5 µM (HMOX1) for the following molecule: `CCOCCNC(=O)c1ccc2c(c1)nc(Nc1nc3ccc(OC(F)(F)F)cc3s1)n2CC`
22.1

Look up and report measured fold induction at 5 µM (HMOX1) for the following molecule: Cn1c(Nc2nc3ccc(OC(F)(F)F)cc3s2)nc2cc(C(=O)NCC(=O)N3CCNCC3)ccc21 [Example 152, hydrochloride]
15

Look up and report measured fold induction at 5 µM (HMOX1) for the following molecule: `Cn1c(Nc2nc3ccc(OC(F)(F)F)cc3s2)nc2cc(C(=O)NCC(=O)NCc3ccc(O)cc3)ccc21`
38.6

Look up and report measured fold induction at 5 µM (HMOX1) for the following molecule: Cn1c(Nc2nc3ccc(OC(F)(F)F)cc3s2)nc2cc(C(=O)NCC(=O)N3CC[C@H](N)C3)ccc21 [Example 412, hydrochloride]
47.6
